# Tested on: SN12C renal
# experiment.summary: NCI tumour cell line growth inhibition, 48 h; in the data active means GI50 below about 0.43 µM; inactive means the rest
Use one of these outcomes when replying: active, inactive

Query block: Assay result, entry CCN1C[C@@H](C)n2c(c(O)c3c(=O)n(Cc4ccc(F)c(Cl)c4)nc(C(=O)NC)c32)C1=O — outcome?
Result block: inactive

Query block: Assay result, entry C=C1CC[C@@](C)(c2cc(Br)c(C)cc2OC(C)=O)[C@H]1C — outcome?
Result block: inactive

Query block: Assay result, entry Cc1cc2c(C(C)C)c(O)c(O)c(/C=N/O)c2c(O)c1-c1c(C)cc2c(C(C)C)c(O)c(O)c(/C=N/O)c2c1O — outcome?
Result block: inactive

Query block: Assay result, entry [pH]1p2[pH]p3p1p3[pH]2.c1cc[c]([Ge]([c]2ccccc2)[c]2ccccc2)cc1.c1cc[c]([Ge]([c]2ccccc2)[c]2ccccc2)cc1.c1cc[c]([Ge]([c]2ccccc2)[c]2ccccc2)cc1 — outcome?
Result block: inactive

Query block: Assay result, entry CN(C)C/C=C/C(=O)Nc1ccc(C(=O)Nc2cccc(Nc3ncc(Cl)c(-c4c[nH]c5ccccc45)n3)c2)cc1 — outcome?
Result block: active

Query block: Assay result, entry C/C=C(/C)C(=O)OC1C=C(CO)C(=O)C(OC(=O)C2(C)OC2C)C1C(C)C (configuration not stated) — outcome?
Result block: inactive

Query block: Assay result, entry O=C1NC(=NCCc2ccccc2F)S/C1=C\c1ccc2ncccc2c1 — outcome?
Result block: inactive

Query block: Assay result, entry c1ccc(C2=Nc3ccccc3N3CNN=C23)cc1 — outcome?
Result block: inactive

Query block: Assay result, entry COc1cccc(N2C(=N)/C(=C3\Nc4ccccc4S3)CC2=O)c1 — outcome?
Result block: inactive

Query block: Assay result, entry Oc1ccc(/C=N/NC(=S)Nc2ccccc2)nc1 — outcome?
Result block: inactive

Query block: Assay result, entry Cc1ncnc2c1ccn2[C@@H]1C[C@H](Oc2cc(C(F)F)c(F)c3c2CNCC3)[C@@H](O)[C@H]1O — outcome?
Result block: inactive

Query block: Assay result, entry CCOC(=O)C(Cc1ccccc1)n1c(O)c(/C=N/c2ncc(Cc3ccc(Cl)cc3Cl)s2)sc1=S (configuration not stated) — outcome?
Result block: inactive

====

# Test system: SK-MEL-2 melanoma
# experiment.summary: NCI tumour cell line growth inhibition, 48 h; in the data active means GI50 below about 0.43 µM; inactive means the rest
Use one of these outcomes when replying: y = active, n = inactive

1. CC(C)(Oc1cccc(N2CCC[C@@H](C(=O)N(Cc3ccc(-c4cn[nH]c4)cc3)C3CC3)C2)c1)C(=O)N1CCNCC1    n
2. CC[C@]1(O)CC2CN(CCc3c([nH]c4ccccc34)C(C(=O)OC)(c3cc4c(cc3OC)N(C=O)[C@H]3[C@@](O)(C(=O)OC)[C@H](OC(C)=O)[C@]5(CC)[C@@H]6C[C@@H]6CN6CC[C@]43[C@@H]65)C2)C1 (some centres undefined)    y
3. C=CCc1cc(O)ccc1O    n

Query block: Assay result, entry CC(=O)NC(CCc1ccc(Cl)c(Cl)c1)c1cccc(O)c(=O)c1 (centres undefined) — outcome?
Result block: n

====

Kindly state TGI for each of the entries shown.
# System: LOX IMVI melanoma
# experiment.summary: NCI tumour cell line growth inhibition, 48 h
Numbers only, in µM.

1) N#CC(Cl)CS(=O)(=O)c1ccccc1 (stereo not drawn)    22
2) COc1cc(C(=O)/C=C/c2cccnc2Nc2ccc(Cl)cc2)cc(OC)c1OC    2.59
3) O=C(O[C@H](/C=C/c1ccccc1)P1(=O)N(Cc2ccccc2)[C@H]2CCCC[C@@H]2N1Cc1ccccc1)c1ccccc1    11.6

Moving on to another molecule below.
Query block: Write down the reported TGI of COc1ccc(/C(=N/Nc2nc3ccccc3n2Cc2ccccc2)C(=O)O)cc1 , test system: LOX IMVI melanoma.
Result block: 35.5

Recorded values, source PubChem BioAssay (NCI).
